- system: MAPK12 (human) (UniProt P53778)
- Sequence (P53778 whole entry, looked up): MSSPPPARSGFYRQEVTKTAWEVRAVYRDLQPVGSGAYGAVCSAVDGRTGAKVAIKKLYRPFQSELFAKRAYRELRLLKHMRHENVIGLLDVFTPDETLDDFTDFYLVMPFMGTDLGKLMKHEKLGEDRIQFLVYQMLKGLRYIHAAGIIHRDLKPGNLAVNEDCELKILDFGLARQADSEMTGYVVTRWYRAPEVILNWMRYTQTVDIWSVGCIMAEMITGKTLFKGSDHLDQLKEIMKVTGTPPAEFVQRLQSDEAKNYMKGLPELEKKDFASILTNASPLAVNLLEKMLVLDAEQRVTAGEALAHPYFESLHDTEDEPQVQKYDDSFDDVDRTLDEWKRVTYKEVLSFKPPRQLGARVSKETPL
- assayExplanation: radiometric filter-binding kinase assay, Kinase HotSpot
- conditions: compound 0.5 µM; ATP 10 µM
measureName: residual activity (%)
API: value field is a number in %; no unit string.

[[record]]
molecule = "CC(=O)O/N=C1\\C(=C2\\C(=O)Nc3cc(Br)ccc32)Nc2ccccc21"
observedmeasurement = 85.2

[[record]]
molecule = "O=C1Nc2ccccc2/C1=C1\\Nc2ccccc2\\C1=N/O"
observedmeasurement = 99.5

[[record]]
molecule = "CCn1cnc2c(Nc3cccc(Cl)c3)nc(N[C@@H]3CCCC[C@@H]3N)nc21"
observedmeasurement = 96.6

[[record]]
molecule = "COc1cc2ncnc(N3CCN(C(=O)Nc4ccc(Oc5ccccc5)cc4)CC3)c2cc1OC"
observedmeasurement = 94.7

[[record]]
molecule = "COc1cc2ncc(-c3ccccc3)nc2cc1OC"
observedmeasurement = 95.5


Which residual activity reading was recorded for the molecule O=C1NC(=O)/C(=C\c2ccc3nccnc3c2)S1 ?
96.6

Then what about the molecule Cn1nc2c3c(cccc31)C(=O)c1ccccc1-2 ?
93.8

Now give it for CC(C)c1nn(-c2c(Cl)cccc2Cl)c2nc(Cc3ccc(OCCO)cc3)nc(O)c12 too.
103

Subsequent entry: CN([C@@H](Cc1ccc(OS(=O)(=O)c2cccc3cnccc23)cc1)C(=O)N1CCN(c2ccccc2)CC1)S(=O)(=O)c1cccc2cnccc12
92.2

Try this molecule next: Cc1nc2cc3nc(-c4cccs4)cnc3cc2n1C
103

====

- system: CSF1R (human) (UniProt P07333)
- Sequence (P07333 whole entry, looked up): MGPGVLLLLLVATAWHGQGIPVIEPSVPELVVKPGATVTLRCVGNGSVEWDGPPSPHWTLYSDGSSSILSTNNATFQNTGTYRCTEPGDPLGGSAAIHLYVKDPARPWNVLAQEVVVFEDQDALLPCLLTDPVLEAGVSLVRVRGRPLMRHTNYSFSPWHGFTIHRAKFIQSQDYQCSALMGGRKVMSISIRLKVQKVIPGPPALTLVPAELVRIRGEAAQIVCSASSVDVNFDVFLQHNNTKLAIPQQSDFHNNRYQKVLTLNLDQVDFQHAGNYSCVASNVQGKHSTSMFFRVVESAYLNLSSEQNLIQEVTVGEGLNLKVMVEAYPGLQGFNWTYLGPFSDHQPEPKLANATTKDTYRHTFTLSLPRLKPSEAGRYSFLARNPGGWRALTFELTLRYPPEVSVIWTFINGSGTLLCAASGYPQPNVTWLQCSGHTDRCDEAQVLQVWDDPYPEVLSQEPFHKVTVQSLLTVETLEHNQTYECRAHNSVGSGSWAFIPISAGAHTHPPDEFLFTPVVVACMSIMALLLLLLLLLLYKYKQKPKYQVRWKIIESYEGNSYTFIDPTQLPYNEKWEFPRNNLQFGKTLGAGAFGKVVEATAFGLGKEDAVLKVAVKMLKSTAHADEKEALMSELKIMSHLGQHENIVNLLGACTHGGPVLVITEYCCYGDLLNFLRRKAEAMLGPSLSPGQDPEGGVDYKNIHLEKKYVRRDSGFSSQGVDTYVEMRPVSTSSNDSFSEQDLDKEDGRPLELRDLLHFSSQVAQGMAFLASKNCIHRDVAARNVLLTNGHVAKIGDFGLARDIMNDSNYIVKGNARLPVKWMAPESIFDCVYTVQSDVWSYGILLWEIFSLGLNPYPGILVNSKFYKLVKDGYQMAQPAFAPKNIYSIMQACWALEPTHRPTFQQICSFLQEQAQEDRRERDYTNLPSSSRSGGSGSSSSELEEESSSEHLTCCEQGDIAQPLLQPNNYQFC
- assayExplanation: radiometric filter-binding kinase assay, Kinase HotSpot
- conditions: compound 0.5 µM; ATP 10 µM
measureName: residual activity (%)
Supply the numeric figure in %, leaving out any unit text.

[[record]]
molecule = "CN(C)C[C@H]1CCn2c(c(C3=C(c4cn(C)c5ccccc45)C(=O)NC3=O)c3ccccc32)C1"
system = "CSF1R (human) (UniProt P07333)"
measurename = "residual activity"
observedmeasurement = 98.1

[[record]]
molecule = "Cc1nc2cc3nc(-c4cccs4)cnc3cc2n1C"
system = "CSF1R (human) (UniProt P07333)"
measurename = "residual activity"
observedmeasurement = 63.5


Please tell me: residual activity of CCN(CC)CCCCN1c2ccccc2Oc2ccc(Cl)cc21 , system CSF1R (human) (UniProt P07333)?
97.8

Cool, now Cn1cnc2cc3c(Nc4cccc(Br)c4)ncnc3cc21
94.4

For Cn1sc(=O)n(Cc2ccccc2)c1=O then?
98.6

# iterate: O=C1Nc2ccccc2/C1=C1\Nc2ccccc2\C1=N/O
83.2

# repeat for CC(C)c1nn(-c2c(Cl)cccc2Cl)c2nc(Cc3ccc(OCCO)cc3)nc(O)c12
94.6

Next up: CC(C)[C@H](CO)Nc1nc(Nc2cc(N)cc(Cl)c2)c2ncn(C(C)C)c2n1
71.1

// next record CC(=O)O/N=C1\C(=C2\C(=O)Nc3cc(Br)ccc32)Nc2ccccc21
84

And for Cn1nc2c3c(cccc31)C(=O)c1ccccc1-2 ?
97

Do the same for Nc1nnc2[nH]c3ccccc3nc1-2 please
95.3

// query: CN([C@@H](Cc1ccc(OS(=O)(=O)c2cccc3cnccc23)cc1)C(=O)N1CCN(c2ccccc2)CC1)S(=O)(=O)c1cccc2cnccc12
95.1

Entry O=C(O)/C=C/c1cc(Br)c(Br)c(Br)c1Br please
99

Let us now turn to Oc1ccc(Nc2nc(-c3ccc(Cl)cc3)cs2)cc1
104
